# tgt: protein-protein interaction between Kras and SOS1 (biotin-tagged human Kras loaded with GDP, His-tagged human SOS1) (Homo sapiens (Human), UniProt P01116, G12D)
# test_description: Protein-protein interaction inhibition between Kras and SOS1 (KrasG12D-SOS PPI) using AlphaScreen;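 also: kras produced in E. coli, Ni-coupled donor beads and streptavidin acceptor beads, excitation 680 nm with emission detected at 520–620 nm via singlet oxygen transfer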
# Format: biochemical
# measurement_setup: AlphaScreen; biotin-tagged human Kras loaded with GDP, His-tagged human SOS1; read-out: KRAS G12D-SOS PPI IC50
Numbered stars: 1 amine (or outer) side, 2 acyl side, 3 side chain; on linkers, the order of the positions; unused ones are H or OH. Bridge positions count the residues as written; N and C are the ends. Square brackets hold non-standard residues; d marks the D form. Peptide text beside a SMILES is read from it. hPhe(3-F,4-CF3) = N[C@@H](CCc1ccc(C(F)(F)F)c(F)c1)C(=O)O; NMePhe(4-Cl) = CN[C@@H](Cc1ccc(Cl)cc1)C(=O)O; NMedβ3hAla = C[C@H](CC(=O)[*:2])N(C)[*:1]; NMeCha = CN[C@@H](CC1CCCCC1)C(=O)O; NMeI = CC[C@H](C)[C@H](NC)C(=O)O; NMeD = CN[C@@H](CC(=O)O)C(=O)O; NMeL = CN[C@@H](CC(C)C)C(=O)O; Chg = N[C@H](C(=O)O)C1CCCCC1; NMeA = CN[C@@H](C)C(=O)O; NMeAib = CNC(C)(C)C(=O)O; Ac5c = NC1(C(=O)O)CCCC1; Aze = O=C(O)[C@@H]1CCN1; Sar = CNCC(=O)O
test_readout: pIC50
Answer as the number alone; pIC50 is minus log10 of concentration in mol/L.

**Query** # get_value(readout='pIC50', item= CC[C@H](C)[C@@H]1NC(=O)[C@H](CC(C)C)N(C)C(=O)C[C@@H](C(=O)N(C)C)N(C)C(=O)[C@H]([C@@H](C)CC)N(C)C(=O)C2(CCCC2)NC(=O)[C@@H]2CCCN2C(=O)[C@H](CCc2ccc(C(F)(F)F)c(F)c2)NC(=O)CN(C)C(=O)[C@H](CC2CCCCC2)N(C)C(=O)[C@@H]2CCN2C(=O)[C@H](C)N(C)C1=O [Compound 999] ([NMeL]I[NMeA][Aze][NMeCha][Sar][hPhe(3-F,4-CF3)]P[Ac5c][NMeI][NMeD]-NMe2; lactam N-11) )
**Result** 8.77

**Query** Another molecule to look at: CC[C@H](C)[C@@H]1NC(=O)[C@H](CC(C)C)N(C)C(=O)C[C@@H](C)N(C)C(=O)[C@H](C2CCCCC2)NC(=O)C(C)(C)N(C)C(=O)[C@H](CC(C)C)NC(=O)[C@H](CCc2ccc(C(F)(F)F)c(F)c2)NC(=O)CN(C)C(=O)[C@H](Cc2ccc(Cl)cc2)N(C)C(=O)CN(C)C(=O)CN(C)C1=O [Compound 897] (cyclo([Chg][NMedβ3hAla][NMeL]I[Sar][Sar][NMePhe(4-Cl)][Sar][hPhe(3-F,4-CF3)]L[NMeAib]))
**Result** 6.82

Numbers sourced from patent US20240148821A1.
